Reference for the values: patent US20050090522A1

assay text: Rat IV and PO pharmacokinetic studies
condition parameters: male, Sprague-Dawley, in vivo, po, 5 mg/kg, AUC 24 h, oral dosing at 5 mg/kg
Threshold rule: AUC(0-t) greater than or equal to 10000 ng·h/mL is Condition met; below that, Condition not met.

Nc1ccn(-c2ncc(F)c3c(C(=O)C(=O)N4CCN(C(=O)c5ccccc5)CC4)c[nH]c23)n1 :: Condition not met

Reported AUC(0-t) at or above 10000 ng·h/mL? O=C(C(=O)N1CCN(C(=O)c2ccccc2)CC1)c1c[nH]c2c(-c3cnco3)ncc(F)c12
Condition met

Form field: AUC(0-t) at least 10000 ng·h/mL? Entry: COc1cnc(-n2ccnn2)c2[nH]cc(C(=O)C(=O)N3CCN(C(=O)c4ccccc4)CC3)c12
Condition met

Form field: AUC(0-t) at least 10000 ng·h/mL? Entry: COc1cnc(-n2cnc(C)n2)c2[nH]cc(C(=O)C(=O)N3CCN(C(=O)c4ccccc4)[C@H](C)C3)c12
Condition met

hey, is AUC(0-t) for this one >= 10000 ng·h/mL? COc1cnc(-c2cnc(N)cn2)c2[nH]cc(C(=O)C(=O)N3CCN(C(=O)c4ccccc4)[C@H](C)C3)c12
Condition not met

Check the entry CCc1ncn(-c2ncc(OC)c3c(C(=O)C(=O)N4CCN(C(=O)c5ccccc5)[C@H](C)C4)c[nH]c23)n1 : does AUC(0-t) equal or exceed 10000 ng·h/mL?
Condition met

Hello, I need to know if COc1cnc(-n2cncn2)c2[nH]cc(C(=O)C(=O)N3CCN(C(=O)c4ccccc4)[C@H](C)C3)c12 has measured AUC(0-t) not below 10000 ng·h/mL. Thanks!
Condition met

###

assay text: Metabolic stability in pooled human liver microsomes (HLM)
condition parameters: pooled human liver microsomes, 3 μM drug; Low/Intermediate/High
measured parameter: HLM predicted human clearance class

COc1cnc(-n2ccc(N)n2)c2[nH]cc(C(=O)C(=O)N3CCN(C(=O)c4ccccc4)CC3)c12 :: Low (0-0.100)
COc1cnc(-n2ccc(C)n2)c2[nH]cc(C(=O)C(=O)N3CCN(C(=O)c4ccccc4)CC3)c12 :: Low (0-0.100)
Cc1noc(-c2ncc(F)c3c(C(=O)C(=O)N4CCN(C(=O)c5ccccc5)CC4)c[nH]c23)n1 :: Low (0-0.100)
COCc1ncn(-c2ncc(OC)c3c(C(=O)C(=O)N4CCN(C(=O)c5ccccc5)[C@H](C)C4)c[nH]c23)n1 :: Low (0-0.100)

###

Test system: HIV-1
assay text: HIV-1 single-round infectious luciferase reporter virus (pseudotype) assay in HeLa CD4 CCR5 cells
Type: cell-based
condition parameters: Human immunodeficiency virus 1, HeLa-CD4/CCR5, 72 h, read-out: EC50 Group from Table 1, HeLa CD4 CCR5 cells, luciferase reporter virus, harvested 72 h after infection
measured parameter: EC50

// solved cases for EC50 follow
C[C@@H]1CN(C(=O)C(=O)c2c[nH]c3c(-c4nccs4)ccnc23)CCN1C(=O)c1ccccc1 :: < 1 µM
C[C@@H]1CN(C(=O)C(=O)c2c[nH]c3c(-c4ncco4)ccnc23)CCN1C(=O)c1ccccc1 :: < 1 µM

Param readout= EC50; system= HIV-1; entry= Cc1ccn(-c2ccnc3c(C(=O)C(=O)N4CCN(C(=O)c5ccccc5)[C@H](C)C4)c[nH]c23)n1 ; returns value.
< 1 µM

# returns recorded EC50 (system: HIV-1) for C[C@@H]1CN(C(=O)c2ccccc2)CCN1C(=O)C(=O)c1c[nH]c2nc(-c3nnn[nH]3)ccc12
1 to 5 µM

I'm curious: which EC50 was measured for C[C@@H]1CN(C(=O)C(=O)c2c[nH]c3c(-n4nccn4)ccnc23)CCN1C(=O)c1ccccc1 tested on HIV-1?
< 1 µM
